System: Staphylococcus sp.
Experiment: In vitro antibacterial evaluation: minimum inhibitory concentration (MIC), broth dilution method
Type: cell-based
Details: strain GC 4545; broth dilution, 18 hours at 35° C.
metric_name: MIC Staphylococcus aureus (GC 4545) (µg/mL)

[[record]]
compound = "CC(c1ccccc1)C1NC(=O)CNC(=O)C(CO)NC(=O)C(C(O)C2CNC(=N)N2C2OC(CO)C(O)C(O)C2O)NC(=O)C(C(O)C2CNC(=N)N2)NC(=O)C(Cc2ccc(OC3OC(CO)C(OC4OC5COC(c6ccc(C(=O)O)cc6)OC5C(O)C4O)C(O)C3O)cc2)NC1=O (centres unmarked)"
metric_name = "MIC Staphylococcus aureus (GC 4545)"
units_of_measure = "µg/mL"
result_operator = ">"
numeric_result = 64

[[record]]
compound = "CC(c1ccccc1)C1NC(=O)CNC(=O)C(CO)NC(=O)C(C(O)C2CNC(=N)N2C2OC(CO)C(O)C(O)C2O)NC(=O)C(C(O)C2CNC(=N)N2)NC(=O)C(Cc2ccc(OC3OC(CO)C(OC4OC5COC(c6cccs6)OC5C(O)C4O)C(O)C3O)cc2)NC1=O (centres unmarked)"
metric_name = "MIC Staphylococcus aureus (GC 4545)"
units_of_measure = "µg/mL"
result_operator = "="
numeric_result = 2

[[record]]
compound = "CCC(CC)C1OCC2OC(OC3C(CO)OC(Oc4ccc(CC5NC(=O)C(C(C)c6ccccc6)NC(=O)CNC(=O)C(CO)NC(=O)C(C(O)C6CNC(=N)N6C6OC(CO)C(O)C(O)C6O)NC(=O)C(C(O)C6CNC(=N)N6)NC5=O)cc4)C(O)C3O)C(O)C(O)C2O1 (centres unmarked)"
metric_name = "MIC Staphylococcus aureus (GC 4545)"
units_of_measure = "µg/mL"
result_operator = "="
numeric_result = 1

[[record]]
compound = "CCOc1cc(C2OCC3OC(OC4C(CO)OC(Oc5ccc(CC6NC(=O)C(C(C)c7ccccc7)NC(=O)CNC(=O)C(CO)NC(=O)C(C(O)C7CNC(=N)N7C7OC(CO)C(O)C(O)C7O)NC(=O)C(C(O)C7CNC(=N)N7)NC6=O)cc5)C(O)C4O)C(O)C(O)C3O2)ccc1OC (centres unmarked)"
metric_name = "MIC Staphylococcus aureus (GC 4545)"
units_of_measure = "µg/mL"
result_operator = "="
numeric_result = 8

[[record]]
compound = "CCCCOC(=O)CCC1OCC2OC(OC3C(CO)OC(Oc4ccc(CC5NC(=O)C(C(C)c6ccccc6)NC(=O)CNC(=O)C(CO)NC(=O)C(C(O)C6CNC(=N)N6C6OC(CO)C(O)C(O)C6O)NC(=O)C(C(O)C6CNC(=N)N6)NC5=O)cc4)C(O)C3O)C(O)C(O)C2O1 (centres unmarked)"
metric_name = "MIC Staphylococcus aureus (GC 4545)"
units_of_measure = "µg/mL"
result_operator = "="
numeric_result = 2

[[record]]
compound = "CC(c1ccccc1)C1NC(=O)CNC(=O)C(CO)NC(=O)C(C(O)C2CNC(=N)N2C2OC(CO)C(O)C(O)C2O)NC(=O)C(C(O)C2CNC(=N)N2)NC(=O)C(Cc2ccc(OC3OC(CO)C(OC4OC5COC(c6ccc(S(C)(=O)=O)cc6)OC5C(O)C4O)C(O)C3O)cc2)NC1=O (centres unmarked)"
metric_name = "MIC Staphylococcus aureus (GC 4545)"
units_of_measure = "µg/mL"
result_operator = "="
numeric_result = 16

[[record]]
compound = "COc1cccc(C2OC3C(OC4C(CO)OC(Oc5ccc(CC6NC(=O)C(C(C)c7ccccc7)NC(=O)CNC(=O)C(CO)NC(=O)C(C(O)C7CNC(=N)N7C7OC(CO)C(O)C(O)C7O)NC(=O)C(C(O)C7CNC(=N)N7)NC6=O)cc5)C(O)C4O)OC(CO)C(O)C3O2)c1 (single isomer, unassigned) [Example 137b]"
metric_name = "MIC Staphylococcus aureus (GC 4545)"
units_of_measure = "µg/mL"
result_operator = "="
numeric_result = 16

[[record]]
compound = "Cc1cccc(C2OCC3OC(OC4C(CO)OC(Oc5ccc(CC6NC(=O)C(C(C)c7ccccc7)NC(=O)CNC(=O)C(CO)NC(=O)C(C(O)C7CNC(=N)N7C7OC(CO)C(O)C(O)C7O)NC(=O)C(C(O)C7CNC(=N)N7)NC6=O)cc5)C(O)C4O)C(O)C(O)C3O2)c1 (centres unmarked)"
metric_name = "MIC Staphylococcus aureus (GC 4545)"
units_of_measure = "µg/mL"
result_operator = "="
numeric_result = 1

[[record]]
compound = "CC(c1ccccc1)C1NC(=O)CNC(=O)C(CO)NC(=O)C(C(O)C2CNC(=N)N2C2OC(CO)C(O)C(O)C2O)NC(=O)C(C(O)C2CNC(=N)N2)NC(=O)C(Cc2ccc(OC3OC(CO)C(OC4OC5COC(c6cccc(-c7ccccc7)c6)OC5C(O)C4O)C(O)C3O)cc2)NC1=O (centres unmarked)"
metric_name = "MIC Staphylococcus aureus (GC 4545)"
units_of_measure = "µg/mL"
result_operator = "="
numeric_result = 1

[[record]]
compound = "CC(c1ccccc1)C1NC(=O)CNC(=O)C(CO)NC(=O)C(C(O)C2CNC(=N)N2C2OC(CO)C(O)C(O)C2O)NC(=O)C(C(O)C2CNC(=N)N2)NC(=O)C(Cc2ccc(OC3OC(CO)C(OC4OC5COC(c6ccc7c(c6)OCCO7)OC5C(O)C4O)C(O)C3O)cc2)NC1=O (centres unmarked)"
metric_name = "MIC Staphylococcus aureus (GC 4545)"
units_of_measure = "µg/mL"
result_operator = "="
numeric_result = 2

[[record]]
compound = "Cc1ccc(Oc2ccc(C3OCC4OC(OC5C(CO)OC(Oc6ccc(CC7NC(=O)C(C(C)c8ccccc8)NC(=O)CNC(=O)C(CO)NC(=O)C(C(O)C8CNC(=N)N8C8OC(CO)C(O)C(O)C8O)NC(=O)C(C(O)C8CNC(=N)N8)NC7=O)cc6)C(O)C5O)C(O)C(O)C4O3)cc2)cc1 (centres unmarked)"
metric_name = "MIC Staphylococcus aureus (GC 4545)"
units_of_measure = "µg/mL"
result_operator = "="
numeric_result = 1

[[record]]
compound = "CC(c1ccccc1)C1NC(=O)CNC(=O)C(CO)NC(=O)C(C(O)C2CNC(=N)N2C2OC(CO)C(O)C(O)C2O)NC(=O)C(C(O)C2CNC(=N)N2)NC(=O)C(Cc2ccc(OC3OC(CO)C(OC4OC5COC(Cc6ccc(Cl)cc6)OC5C(O)C4O)C(O)C3O)cc2)NC1=O (centres unmarked)"
metric_name = "MIC Staphylococcus aureus (GC 4545)"
units_of_measure = "µg/mL"
result_operator = "<"
numeric_result = 0.5

